- Test Summary: Pharmacokinetic study of compound 03058 in male ICR mice
- Type: in vivo
- Condition Info: mouse, Intravenous 0.05 mg/kg, plasma
Metric: AUC(0-t) (ng·h/mL)
Write down the numeric answer in ng·h/mL and omit the unit.

Indicate its recorded AUC(0-t); the compound in question is Cc1cc(N2CCOc3cc(F)ccc3C2)cc(C)c1NC(=O)CC(C)(C)C [Compound 03058]
7.2

###

- Test Summary: Pharmacokinetic study of compound 03058 in male ICR mice
- Format: in vivo
- Condition Info: mouse, po, Gavage 1 mg/kg, plasma
Metric: AUC(0-t) (ng·h/mL)
Write down the numeric answer in ng·h/mL and omit the unit.

Indicate its recorded AUC(0-t); the compound in question is Cc1cc(N2CCOc3cc(F)ccc3C2)cc(C)c1NC(=O)CC(C)(C)C [Compound 03058]
43.6

###

- Test Summary: Pharmacokinetic study of compound 03058 in male ICR mice
- Assay type: in vivo
- Condition Info: mouse, po, Gavage 1 mg/kg, plasma
Metric: AUC(0-inf) (ng·h/mL)
Write down the numeric answer in ng·h/mL and omit the unit.

Indicate its recorded AUC(0-inf); the compound in question is Cc1cc(N2CCOc3cc(F)ccc3C2)cc(C)c1NC(=O)CC(C)(C)C [Compound 03058]
43.6

###

Entries and their concentration at 1 h values follow.
- Test Summary: Plasma and brain concentration / cerebral blood ratio (BBB penetration) in male SD rats after single oral administration
- Format: in vivo
- Condition Info: rat, brain, 1 h after single oral administration 5 mg/kg, read-out: Brain concentration
- Excerpt: Study on the Pharmacokinetics of Compounds 03043 and 03044 1) Research purpose: To obtain the pharmacokinetic characteristics of compounds 03043 and 03044 in male SD rats and their blood-brain barrier (BBB) penetration […]
Write down the numeric answer in ng/g and omit the unit.

> print(dat)
                              sample.smiles  test.value
1  Cc1cc(N2CCCc3cc(Cl)sc3C2)cc(C)c1NC(=O)CC(C)(C)C         251

Please turn your attention to the following entry.
Indicate its recorded concentration at 1 h; the compound in question is Cc1cc(N2CCCc3sc(Cl)cc3C2)cc(C)c1NC(=O)CC(C)(C)C
67.1

###

- Test Summary: Cerebral blood ratio of compound A in previous studies
- Type: in vivo
- Condition Info: brain/blood, at 4 h
Metric: Kp at 4 h
// return just the number, without any unit appended

Indicate its recorded Kp at 4 h; the compound in question is Cc1cc(N2CCc3sc(Cl)cc3C2)cc(C)c1NC(=O)CC(C)(C)C
0.46

###

- Test Summary: Pharmacokinetics of compounds 03043 and 03044 in male SD rats
- Assay type: in vivo
- Condition Info: rat, Intravenous 1 mg/kg, plasma
Metric: Cmax (ng/mL)
Write down the numeric answer in ng/mL and omit the unit.

> print(dat)
                              sample.smiles  test.value
1  Cc1cc(N2CCCc3cc(Cl)sc3C2)cc(C)c1NC(=O)CC(C)(C)C        1740

Please turn your attention to the following entry.
Indicate its recorded Cmax; the molecule in question is Cc1cc(N2CCCc3sc(Cl)cc3C2)cc(C)c1NC(=O)CC(C)(C)C
2040

###

- Test Summary: Plasma and brain concentration / cerebral blood ratio (BBB penetration) in male SD rats after single oral administration
- Format: in vivo
- Condition Info: rat, brain/plasma, 8 h after single oral administration 5 mg/kg
Metric: Kp at 8 h
// return just the number, without any unit appended

> print(dat)
                              sample.smiles  test.value
1  Cc1cc(N2CCCc3cc(Cl)sc3C2)cc(C)c1NC(=O)CC(C)(C)C         1.7

Please turn your attention to the following entry.
Indicate its recorded Kp at 8 h; the compound in question is Cc1cc(N2CCCc3sc(Cl)cc3C2)cc(C)c1NC(=O)CC(C)(C)C
1

###

- Test Summary: Plasma and brain concentration / cerebral blood ratio (BBB penetration) in male SD rats after single oral administration
- Format: in vivo
- Condition Info: rat, plasma, 1 h after single oral administration 5 mg/kg, read-out: Plasma concentration
Entries and their concentration at 1 h values follow.
Write down the numeric answer in ng/mL and omit the unit.

> print(dat)
                              sample.smiles  test.value
1  Cc1cc(N2CCCc3cc(Cl)sc3C2)cc(C)c1NC(=O)CC(C)(C)C         112

Indicate its recorded concentration at 1 h; the compound in question is Cc1cc(N2CCCc3sc(Cl)cc3C2)cc(C)c1NC(=O)CC(C)(C)C
32.2

###

- Test Summary: Cerebral blood ratio of compound A in previous studies
- Assay type: in vivo
- Condition Info: brain/blood, at 2 h
Metric: Kp at 2 h
// return just the number, without any unit appended

Indicate its recorded Kp at 2 h; the molecule in question is Cc1cc(N2CCc3sc(Cl)cc3C2)cc(C)c1NC(=O)CC(C)(C)C [Compound A]
0.56

###

Entries and their concentration at 8 h values follow.
- Test Summary: Plasma and brain concentration / cerebral blood ratio (BBB penetration) in male SD rats after single oral administration
- Assay type: in vivo
- Condition Info: rat, brain, 8 h after single oral administration 5 mg/kg, read-out: Brain concentration
Write down the numeric answer in ng/g and omit the unit.

> print(dat)
                              sample.smiles                metric  value.unit  test.value
1  Cc1cc(N2CCCc3sc(Cl)cc3C2)cc(C)c1NC(=O)CC(C)(C)C  concentration at 8 h        ng/g          20

Indicate its recorded concentration at 8 h; the compound in question is Cc1cc(N2CCCc3cc(Cl)sc3C2)cc(C)c1NC(=O)CC(C)(C)C
67.6

###

Entries and their concentration at 4 h values follow.
- Test Summary: Plasma and brain concentration / cerebral blood ratio (BBB penetration) in male SD rats after single oral administration
- Assay type: in vivo
- Condition Info: rat, plasma, 4 h after single oral administration 5 mg/kg, read-out: Plasma concentration
Write down the numeric answer in ng/mL and omit the unit.

> print(dat)
                                   compound                metric  test.value
1  Cc1cc(N2CCCc3cc(Cl)sc3C2)cc(C)c1NC(=O)CC(C)(C)C [Compound 03044]  concentration at 4 h        50.2

Please turn your attention to the following entry.
Indicate its recorded concentration at 4 h; the compound in question is Cc1cc(N2CCCc3sc(Cl)cc3C2)cc(C)c1NC(=O)CC(C)(C)C [Compound 03043]
47.9

###

- Test Summary: Pharmacokinetics of compounds 03043 and 03044 in male SD rats
- Type: in vivo
- Condition Info: rat, po, Gavage 5 mg/kg, plasma
Entries and their half-life values follow.
Write down the numeric answer in h and omit the unit.

> print(dat)
                              sample.smiles  test.value
1  Cc1cc(N2CCCc3sc(Cl)cc3C2)cc(C)c1NC(=O)CC(C)(C)C        12.3

Please turn your attention to the following entry.
Indicate its recorded half-life; the compound in question is Cc1cc(N2CCCc3cc(Cl)sc3C2)cc(C)c1NC(=O)CC(C)(C)C
7.08

###

- Test Summary: Pharmacokinetic study of compound 03058 in male ICR mice
- Assay type: in vivo
- Condition Info: mouse, Intravenous 0.05 mg/kg, plasma
Metric: AUC(0-inf) (ng·h/mL)
Write down the numeric answer in ng·h/mL and omit the unit.

Indicate its recorded AUC(0-inf); the compound in question is Cc1cc(N2CCOc3cc(F)ccc3C2)cc(C)c1NC(=O)CC(C)(C)C [Compound 03058]
7.2

###

- Test Summary: Pharmacokinetic study of compound 03058 in male ICR mice
- Format: in vivo
- Condition Info: mouse, po, Gavage 1 mg/kg, plasma
Metric: Tmax (min)
Write down the numeric answer in min and omit the unit.

Indicate its recorded Tmax; the compound in question is Cc1cc(N2CCOc3cc(F)ccc3C2)cc(C)c1NC(=O)CC(C)(C)C
30

###

- Test Summary: Pharmacokinetics of compounds 03043 and 03044 in male SD rats
- Format: in vivo
- Condition Info: rat, po, Gavage 5 mg/kg, plasma
Entries and their Cmax values follow.
Write down the numeric answer in ng/mL and omit the unit.

> print(dat)
                              sample.smiles  value.unit  test.value
1  Cc1cc(N2CCCc3cc(Cl)sc3C2)cc(C)c1NC(=O)CC(C)(C)C       ng/mL         118

Please turn your attention to the following entry.
Indicate its recorded Cmax; the compound in question is Cc1cc(N2CCCc3sc(Cl)cc3C2)cc(C)c1NC(=O)CC(C)(C)C
129

###

- Test Summary: Pharmacokinetics of compounds 03043 and 03044 in male SD rats
- Assay type: in vivo
- Condition Info: rat, po, Gavage 5 mg/kg, plasma
Entries and their AUC(0-t) values follow.
Please give the number followed by its unit.

Indicate its recorded AUC(0-t); the compound in question is Cc1cc(N2CCCc3cc(Cl)sc3C2)cc(C)c1NC(=O)CC(C)(C)C [Compound 03044]
723 ng·h/mL

Indicate its recorded AUC(0-t); the compound in question is Cc1cc(N2CCCc3sc(Cl)cc3C2)cc(C)c1NC(=O)CC(C)(C)C [Compound 03043]
612 ng·h/mL
